# TGT: T1, PTH1 receptor (human, UniProt Q03431)
# T1 chain: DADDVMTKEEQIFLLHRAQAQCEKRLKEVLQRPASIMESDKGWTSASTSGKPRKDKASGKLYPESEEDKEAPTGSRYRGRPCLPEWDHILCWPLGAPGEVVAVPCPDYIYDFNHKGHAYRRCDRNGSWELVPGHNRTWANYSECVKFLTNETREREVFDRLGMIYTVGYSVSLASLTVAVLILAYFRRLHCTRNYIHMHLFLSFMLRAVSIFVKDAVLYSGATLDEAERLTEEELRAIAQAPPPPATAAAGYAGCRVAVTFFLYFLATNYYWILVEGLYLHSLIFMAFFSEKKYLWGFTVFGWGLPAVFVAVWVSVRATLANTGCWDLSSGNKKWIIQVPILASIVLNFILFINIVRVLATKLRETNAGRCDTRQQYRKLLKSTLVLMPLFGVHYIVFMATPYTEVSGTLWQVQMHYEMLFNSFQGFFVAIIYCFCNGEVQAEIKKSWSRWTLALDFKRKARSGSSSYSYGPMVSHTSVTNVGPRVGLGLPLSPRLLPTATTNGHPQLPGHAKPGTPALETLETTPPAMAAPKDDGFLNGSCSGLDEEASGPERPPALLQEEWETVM
# ASSAY NOTES: other, radioligand kinetics, HEK293 membranes, 21C
No end group written: not given here.
METRIC: Kd

{"BINDER": "DAAFRERARLLAALERRHWLNSYMHKLLVLDAP (also: 125I label, site not given here) [[125I]TIP(7-39)]", "METRIC": "Kd", "OBS VALUE": "0.57 nM"}
